# GI50 per entry
# System: HCT-116
# test.summary: NCI tumour cell line growth inhibition, 48 h
Active and inactive are the calls of the source. Rule as the data show it: active = GI50 up to about 1.1 µM and inactive = higher.

Sample records with GI50:
{"columns": ["molecule", "GI50"],
 "data": [
  ["CN(C)CCC(=O)N1CCc2c([nH]c3ccccc23)C1c1cccnc1 (centres undefined)", "> 100 µM (inactive)"],
  ["CCCCN(CCCC)CC(C(C)=O)C(c1ccccc1)c1c(O)c2ccccc2oc1=O (centres undefined)", "> 100 µM (inactive)"],
  ["O=c1c2cc(S(=O)(=O)O)ccc2nc(COc2ccc(Oc3ccc(Cl)cc3Cl)cc2)n1-c1ccc(Oc2ccc(Cl)cc2)cc1Cl", "20.8 µM (inactive)"]
]}

Form: item CN(C)Cc1cc(C(=O)/C=C/c2ccc(/C=C/C(=O)c3cc(CN(C)C)c(O)c(CN(C)C)c3)cc2)cc(CN(C)C)c1O ; test system HCT-116; GI50: 15.2 µM (inactive)
